So I've got IC50 readings for UniProt Q96RU2, take a look.
Sequence (Q96RU2 whole entry): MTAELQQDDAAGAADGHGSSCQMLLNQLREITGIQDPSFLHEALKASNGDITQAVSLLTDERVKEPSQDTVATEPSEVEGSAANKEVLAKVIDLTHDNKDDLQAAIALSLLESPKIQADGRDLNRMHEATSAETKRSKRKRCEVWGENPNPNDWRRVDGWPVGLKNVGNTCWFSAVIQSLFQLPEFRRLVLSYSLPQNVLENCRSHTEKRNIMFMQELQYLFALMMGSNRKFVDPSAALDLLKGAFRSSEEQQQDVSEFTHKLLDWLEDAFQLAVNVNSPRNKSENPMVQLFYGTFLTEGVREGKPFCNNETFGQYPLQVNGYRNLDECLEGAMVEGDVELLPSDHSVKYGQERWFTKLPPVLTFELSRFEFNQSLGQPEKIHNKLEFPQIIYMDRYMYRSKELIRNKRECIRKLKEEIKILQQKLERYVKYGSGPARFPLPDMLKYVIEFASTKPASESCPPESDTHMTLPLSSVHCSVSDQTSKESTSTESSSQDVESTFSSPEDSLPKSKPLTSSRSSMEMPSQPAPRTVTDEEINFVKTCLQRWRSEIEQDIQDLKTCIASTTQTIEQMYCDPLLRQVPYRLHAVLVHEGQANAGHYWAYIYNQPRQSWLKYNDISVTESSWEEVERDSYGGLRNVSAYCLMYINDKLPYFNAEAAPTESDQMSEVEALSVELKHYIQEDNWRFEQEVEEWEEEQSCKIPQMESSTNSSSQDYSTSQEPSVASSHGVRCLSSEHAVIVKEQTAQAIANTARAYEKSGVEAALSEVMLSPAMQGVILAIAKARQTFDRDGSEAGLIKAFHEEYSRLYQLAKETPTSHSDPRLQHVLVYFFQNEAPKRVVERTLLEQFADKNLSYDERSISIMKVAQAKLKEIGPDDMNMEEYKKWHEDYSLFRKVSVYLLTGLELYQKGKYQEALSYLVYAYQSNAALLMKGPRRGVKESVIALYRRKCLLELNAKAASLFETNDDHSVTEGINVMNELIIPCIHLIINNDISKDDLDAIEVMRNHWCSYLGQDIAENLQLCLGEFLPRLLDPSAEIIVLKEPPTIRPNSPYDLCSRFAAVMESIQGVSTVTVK

Check out these entries, answers already filled in.
Case "Cc1ccc2c(N)c(C(=O)NCCc3ccc(N4CCNCC4)cc3)sc2n1" , UniProt Q96RU2, IC50 recorded as 200 to 2000 nM

Entry Cc1ccc2c(N)c(C(=O)NCCc3ccc(N4CCN(CC5CCO5)CC4)cc3)sc2n1 (centres unmarked) under UniProt Q96RU2 had IC50 of 200 to 2000 nM

Result for Cc1ccc2c(N)c(C(=O)NCCc3ccc(N4CCC5(CCCNC5)C4)cc3)sc2n1 (single isomer, unassigned) , tested on UniProt Q96RU2, IC50: 200 to 2000 nM

With UniProt Q96RU2 as the test system, "CCc1ccc2c(N)c(C(=O)NCCc3ccc(N4CCNCC4)cc3)sc2n1" showed IC50 of < 200 nM

Record "Cc1ccc2c(N)c(C(=O)NCCc3ccc(N4CCNCC4)c(-c4cnn(C5CCOCC5)c4)c3)sc2n1" ; system UniProt Q96RU2; IC50 = 2000 to 10000 nM

Can you give me IC50 for all of these, one by one?
1. Cc1ccc2c(N)c(C(=O)NCCc3ccc([C@H]4CCNC4)cc3)sc2n1 (single isomer, unassigned)
2. Cc1ccc2c(N)c(C(=O)NCCc3ccc(N4CCNCC4)c(F)c3F)sc2n1
3. Cc1ccc2c(N)c(C(=O)NCCc3ccc(O[C@@H]4COC5(CNC5)C4)cc3)sc2n1 (single isomer, unassigned)
4. Cc1nc2sc(C(=O)NC[C@@H](C)c3cc(F)c(N4CC5CCC(C4)N5)cc3F)c(N)c2cc1F (single isomer, unassigned)
5. Cc1ccc2c(N)c(C(=O)NCCc3ccc4c(c3)CNCC4)sc2n1
6. Cc1ccc2c(N)c(C(=O)NCCc3ccc(N4CCNCC4)cc3C)sc2n1
7. CNc1ccc2c(N)c(C(=O)NCCc3ccc(N4CCNCC4)cc3)sc2n1
8. Cc1ccc2c(N)c(C(=O)NCCc3ccc(N4CC[C@@H](NC(C)C)C4)cc3)sc2n1

Response:
< 200 nM
200 to 2000 nM
200 to 2000 nM
< 200 nM
200 to 2000 nM
< 200 nM
200 to 2000 nM
200 to 2000 nM

Please supply IC50 for each of the following items, keeping them in order.
1. Cc1ccc2c(N)c(C(=O)NCCc3ccc(N4C5CNCC4C5)cc3)sc2n1
2. Cc1ccc2c(N)c(C(=O)NCCc3ccc(C4CCNCC4)c(Cl)c3)sc2n1
3. Cc1cc(C(F)F)nc2sc(C(=O)NCCc3ccc(N4CCNCC4)cc3)c(N)c12
4. Nc1c(C(=O)NCCc2ccc(N3CCNCC3)cc2)sc2nc3c(cc12)CCC3
5. COc1nc2sc(C(=O)NCCc3cc(F)c(N4CCNCC4)cc3F)c(N)c2cc1F
6. Nc1ccc2c(N)c(C(=O)NCCc3ccc(N4CCNCC4)cc3)sc2n1

Response:
1: < 200 nM; 2: < 200 nM; 3: < 200 nM; 4: 2000 to 10000 nM; 5: 200 to 2000 nM; 6: 200 to 2000 nM

Please look at the items below and tell me IC50 for each one, in order.
1. Cc1ccc2c(N)c(C(=O)NCCc3ccc(N4CCNCC4)c(C(F)(F)F)c3)sc2n1
2. CCc1nc2sc(C(=O)NCCc3cc(F)c(N4CCNCC4)cc3F)c(N)c2cc1F
3. COc1cc(N2CCNCC2)ccc1CCNC(=O)c1sc2nc(C)ccc2c1N

Response:
1: 200 to 2000 nM; 2: < 200 nM; 3: < 200 nM

Respectfully, I request IC50 for each entry included below.
1. Cc1nc2sc(C(=O)NC[C@H](C)c3cc(F)c(N4CC5CCC(C4)N5)cc3F)c(N)c2cc1F (single isomer, unassigned)
2. Cc1ccc2c(N)c(C(=O)NCCc3cc(F)c(C4CCNCC4)cc3F)sc2n1
3. Cc1ccc2c(N)c(C(=O)NCCc3ccc(N4CCN[C@@H](CO)C4)cc3)sc2n1

Response:
["200 to 2000 nM", "< 200 nM", "< 200 nM"]

Quick batch: IC50 for everything below.
1. Cc1ccc2c(N)c(C(=O)NCCc3ccc(N4CCN(C5CCC5)CC4)cc3)sc2n1
2. Cc1ccc2c(N)c(C(=O)NCCc3cc(F)c(N4C[C@H]5CCN[C@H]5C4)cc3F)sc2n1
3. Cc1ccc2c(N)c(C(=O)NCCc3ccc(CC(=O)O)cc3)sc2n1
4. CC(C)Oc1ccc2c(N)c(C(=O)NCCc3ccc(N4CCNCC4)cc3)sc2n1
5. COCc1cc(N2CCNCC2)ccc1CCNC(=O)c1sc2nc(C)ccc2c1N

Response:
1. 200 to 2000 nM
2. < 200 nM
3. 200 to 2000 nM
4. 200 to 2000 nM
5. < 200 nM

For each listed entry, give its IC50.
1. Cc1ccc2c(N)c(C(=O)NCCc3ccc(C4CCNCC4)cc3F)sc2n1
2. Cc1cc2c(N)c(C(=O)NCCc3ccc(N4CCNCC4)c(Cl)c3)sc2nc1C

Response:
1: < 200 nM; 2: 2000 to 10000 nM
